In this section, each of the molecules is paired with its reported MIC.
# System: Acinetobacter baumannii
# assay-info: Antibacterial activity against carbapenem-resistant Acinetobacter baumannii CRAB-1 clinical isolate incubated for 16 to 24 hrs by broth microdilution assay
# Assay type: functional
# details: time 16-24 hrs

• CN[C@H](CC(C)C)C(=O)N[C@H]1C(=O)N[C@@H](CC(N)=O)C(=O)N[C@H]2C(=O)N[C@H]3C(=O)N[C@H](C(=O)N[C@H](C(=O)O)c4cc(O)cc(O)c4-c4cc3ccc4O)[C@H](O)c3ccc(c(Cl)c3)Oc3cc2cc(c3O[C@@H]2O[C@H](CO)[C@@H](O)[C@H](O)[C@H]2O[C@H]2C[C@](C)(N)[C@H](O)[C@H](C)O2)Oc2ccc(cc2Cl)[C@H]1O [VANCOMYCIN] = > 128 µg/mL
• CN[C@H](CC(C)C)C(=O)N[C@H]1C(=O)N[C@@H](CC(N)=O)C(=O)N[C@H]2C(=O)N[C@H]3C(=O)N[C@H](C(=O)N[C@H](C(=O)O)c4cc(O)cc(O)c4-c4cc3ccc4O)[C@H](O)c3ccc(c(Cl)c3)Oc3cc2cc(c3O[C@@H]2O[C@H](CO)[C@@H](O)[C@H](O)[C@H]2O[C@H]2C[C@](C)(NCCC[S+](C)CC(O)COc3ccccc3)[C@H](O)[C@H](C)O2)Oc2ccc(cc2Cl)[C@H]1O.O=C([O-])C(F)(F)F (stereo not given in full) = 128 µg/mL
• CN[C@H](CC(C)C)C(=O)N[C@H]1C(=O)N[C@@H](CC(N)=O)C(=O)N[C@H]2C(=O)N[C@H]3C(=O)N[C@H](C(=O)N[C@H](C(=O)O)c4cc(O)c(CNCCC[S+](C)CC(O)COc5ccc(-c6ccc(Cl)cc6)cc5)c(O)c4-c4cc3ccc4O)[C@H](O)c3ccc(c(Cl)c3)Oc3cc2cc(c3O[C@@H]2O[C@H](CO)[C@@H](O)[C@H](O)[C@H]2O[C@H]2C[C@](C)(N)[C@H](O)[C@H](C)O2)Oc2ccc(cc2Cl)[C@H]1O.O=C([O-])C(F)(F)F (stereo not given in full) = 16 µg/mL
• C[C@@H](O)[C@H]1C(=O)N2C(C(=O)O)=C(S[C@@H]3CN[C@H](C(=O)N(C)C)C3)[C@H](C)[C@H]12 [MEROPENEM] = > 128 µg/mL

Which MIC value belongs to CN[C@H](CC(C)C)C(=O)N[C@H]1C(=O)N[C@@H](CC(N)=O)C(=O)N[C@H]2C(=O)N[C@H]3C(=O)N[C@H](C(=O)N[C@H](C(=O)NCCC[S+](C)CC(O)COc4ccc(C(F)(F)F)cc4)c4cc(O)cc(O)c4-c4cc3ccc4O)[C@H](O)c3ccc(c(Cl)c3)Oc3cc2cc(c3O[C@@H]2O[C@H](CO)[C@@H](O)[C@H](O)[C@H]2O[C@H]2C[C@](C)(N)[C@H](O)[C@H](C)O2)Oc2ccc(cc2Cl)[C@H]1O.O=C([O-])C(F)(F)F (stereo not given in full) ?
64 µg/mL
